Attribute: pIC50
- System: RAW264.7
- method: Inhibition of LPS-induced NO production in mouse RAW264.7 cells after 24 hrs by Griess assay
- Assay type: functional, cell-based
- setup-conditions: RAW264.7, 24 h
pIC50: −log10 of the molar value.

molecule: C=C1[C@H]2C[C@H]2[C@]2(C)[C@@H]3CC4=C5[C@H](/C(=C(\C)C(=O)OC)C(=O)C[C@@]5(C)[C@@H]5C[C@H]45)[C@@]34OC(=O)C(C)=C4C[C@@H]12
measurement-target: RAW264.7
pIC50: 4.61
//
molecule: C=C1[C@H]2C[C@H]2[C@]2(C)[C@@H]3CC4=C5[C@H](/C(=C(/C)C(=O)OC)C(=O)[C@H](O)[C@@]5(C)[C@@H]5C[C@H]45)[C@@]34OC(=O)C(C)=C4C[C@@H]12
measurement-target: RAW264.7
pIC50: 4.58
//
molecule: C=C1[C@H]2C[C@H]2[C@]2(C)[C@@H]3[C@@H](O)C4=C5[C@H](/C(=C(\C)C(=O)OC)C(=O)[C@H](O)[C@@]5(C)[C@@H]5C[C@H]45)[C@@]34OC(=O)C(C)=C4C[C@@H]12
measurement-target: RAW264.7
pIC50: 4.33
//
molecule: C=C1[C@H]2C[C@H]2[C@@]2(C)[C@H]1[C@@H](OC(C)=O)C1=C(C)C(=O)O[C@@]13[C@@H]1C4=C(C[C@H]32)[C@H]2C[C@H]2[C@]4(C)[C@@H](O)C(=O)/C1=C(/C)C(=O)OC
measurement-target: RAW264.7
pIC50: 4.60
//
molecule: COC(=O)/C(C)=C1\C(=O)[C@H](O)[C@]2(C)C3=C(C[C@@H]4[C@]5(OC(=O)C(CO)=C5C[C@H]5[C@H](COC(C)=O)[C@H]6C[C@H]6[C@]45C)[C@H]31)[C@H]1C[C@H]12
measurement-target: RAW264.7
pIC50: 5.16
//
molecule: C=C1[C@H]2C[C@H]2[C@]2(C)[C@@H]3CC4=C5[C@H](C(C(C)C(=O)OC)=C(O)C(=O)[C@@]5(C)[C@@H]5C[C@H]45)[C@@]34OC(=O)C(C)=C4C[C@@H]12 (stereo partly specified)
measurement-target: RAW264.7
pIC50: 4.58

----------
- System: RAW264.7
- method: Inhibition of LPS-induced NO production in mouse RAW264.7 cells after 24 hrs by Griess assay
- Type: functional, cell-based
- setup-conditions: RAW264.7, 24 h
Attribute: IC50

substance-smiles: C/C=C(\C)C(=O)OC[C@]1(O)[C@H]2C[C@H]2[C@]2(C)[C@@H]3CC4=C5[C@H](/C(=C(\C)C(=O)OC)C(=O)[C@H](O)[C@@]5(C)[C@@H]5C[C@H]45)[C@@]34OC(=O)C(COC(=O)CCC(=O)O)=C4C[C@@H]12
IC50: 11.6 µM

substance-smiles: COC(=O)/C(C)=C1\C(=O)[C@H](O)[C@]2(C)C3=C(C[C@@H]4[C@]5(OC(=O)C6=C5C[C@H]5[C@](O)(COC(=O)/C=C(\C)COC(=O)CCC(=O)OC6)[C@H]6C[C@H]6[C@]45C)[C@H]31)[C@H]1C[C@H]12
IC50: 21 µM

substance-smiles: C=C1[C@H]2C[C@H]2[C@]2(C)[C@@H]3CC4=C5[C@H](/C(=C(\C)C(=O)OC)C(=O)[C@H](O)[C@@]5(C)[C@@H]5C[C@H]45)[C@@]34OC(=O)C(C)=C4C[C@@H]12
IC50: 27 µM

substance-smiles: C=C1[C@H]2C[C@H]2[C@]2(C)[C@@H]3C[C@@]4(O)C5=C(C6=C(C)C(=O)O[C@]6(OCCCC)[C@H](O)[C@@]5(C)[C@@H]5C[C@@H]54)[C@@]34OC(=O)C(C)=C4C[C@@H]12
IC50: 39.4 µM

substance-smiles: O=c1c(O)c(-c2ccc(O)c(O)c2)oc2cc(O)cc(O)c12
IC50: 15.9 µM
